Provide the reported EC50 of each item.
organism: Cavia porcellus; test: Inhibition of acetylstrophantidin induced arrhythmia in guinea pig isolated right atria.; assay type: functional; conditions: read-out: ED50 (the source's name)
Expressed in µg/mL, but write only the number.

[Q] State the recorded EC50 for this entry: CC(C)COC(=O)CCc1cc(CN2CCCC2)c(O)c(CN2CCCC2)c1
[A] 14

[Q] State the recorded EC50 for this entry: CC(C)COC(=O)Cc1cc(CN2CCCC2)c(O)c(CN2CCCC2)c1
[A] 5

[Q] State the recorded EC50 for this entry: CC(C)OC(=O)c1cc(CN2CCCC2)c(O)c(CN2CCCC2)c1
[A] 11.4

[Q] State the recorded EC50 for this entry: CCOC(=O)Cc1cc(CN2CCCC2)c(O)c(CN2CCCC2)c1
[A] 17.2

[Q] State the recorded EC50 for this entry: CC(C)COC(=O)CCCc1cc(CN2CCCC2)c(O)c(CN2CCCC2)c1
[A] 2

[Q] State the recorded EC50 for this entry: CCC(C)OC(=O)c1cc(CN2CCCC2)c(O)c(CN2CCCC2)c1 (stereo not given)
[A] 6.7

[Q] State the recorded EC50 for this entry: CCCCOC(=O)Cc1cc(CN2CCCC2)c(O)c(CN2CCCC2)c1
[A] 13.3

[Q] State the recorded EC50 for this entry: CC(C)OC(=O)CCc1cc(CN2CCCC2)c(O)c(CN2CCCC2)c1
[A] 4

[Q] State the recorded EC50 for this entry: O=C(Nc1ccccc1)c1cc(CN2CCCC2)c(O)c(CN2CCCC2)c1
[A] 11

[Q] State the recorded EC50 for this entry: CCCCOC(=O)CCCc1cc(CN2CCCC2)c(O)c(CN2CCCC2)c1
[A] 0.33

[Q] State the recorded EC50 for this entry: CC(C)COC(=O)c1cc(CN2CCCC2)c(O)c(CN2CCCC2)c1
[A] 2.3

[Q] State the recorded EC50 for this entry: O=C(NCC1CCCCN1)c1cc(OCC(F)(F)F)ccc1OCC(F)(F)F (stereo not given) [FLECAINIDE]
[A] 6

[Q] State the recorded EC50 for this entry: CC(C)OC(=O)Cc1cc(CN2CCCC2)c(O)c(CN2CCCC2)c1
[A] 1

[Q] State the recorded EC50 for this entry: CCCCOC(=O)CCc1cc(CN2CCCC2)c(O)c(CN2CCCC2)c1
[A] 2.5

[Q] State the recorded EC50 for this entry: CCCOC(=O)Cc1cc(CN2CCCC2)c(O)c(CN2CCCC2)c1
[A] 10.3

[Q] State the recorded EC50 for this entry: CCN(CC)CC(=O)Nc1c(C)cccc1C
[A] 6

[Q] State the recorded EC50 for this entry: CCCOC(=O)CCc1cc(CN2CCCC2)c(O)c(CN2CCCC2)c1
[A] 7
